Entries and their Kd values follow.
biological target: UniProt:P9WGR1; assay: SPR profiling of DEL screening hits, compound injected alone
Sequence (P9WGR1 whole entry, looked up): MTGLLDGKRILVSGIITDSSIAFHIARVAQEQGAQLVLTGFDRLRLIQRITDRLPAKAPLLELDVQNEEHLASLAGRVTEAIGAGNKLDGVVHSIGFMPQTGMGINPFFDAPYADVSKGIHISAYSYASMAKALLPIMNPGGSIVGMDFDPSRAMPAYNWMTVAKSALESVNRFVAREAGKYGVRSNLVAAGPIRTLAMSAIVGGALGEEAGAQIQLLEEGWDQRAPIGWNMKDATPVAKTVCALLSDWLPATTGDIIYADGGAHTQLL

# compound, Kd
measured = [
    ("CNC(=O)CN(C(=O)Cc1ccc(-n2cccn2)cc1)C1CCN(c2ccccn2)CC1", "> 100 µM"),
    ("CNC(=O)c1cnc(NC2CCN(c3ccccn3)CC2)c(NCc2ccc(F)c(Oc3ccccc3)c2)c1", "> 100 µM"),
    ("CNC(=O)C1CCCN1C(=O)CC1CCC(NC(=O)C2CC(c3ccccc3)CN2)CC1 (stereo not shown)", "> 100 µM"),
    ("Cc1c(CC(=O)NC2CCC(CC(=O)N3CCN(CC(=O)CN)C(=O)C3Cc3ccccc3)CC2)sc2ccccc12 (stereo not shown)", "> 100 µM"),
    ("CNC(=O)C1CC(NC(=O)C(NC(=O)c2ccc(Cn3cccn3)cc2)[C@@H](C)OC(C)(C)C)CN1C(=O)c1ccccc1 (stereo partly shown)", "> 100 µM"),
    ("CNC(=O)CN(Cc1ccc(C)cc1)C(=O)C[C@H]1CC[C@H](CC(=O)c2nnn(Cc3ccccc3)c2C)CC1", "> 100 µM"),
    ("CCCc1cc(C(=O)N2CCC(C(=O)NC(CC(=O)NC)c3cccc(C(F)(F)F)c3)(c3ccc(Br)cc3)CC2)n(C)n1 (stereo not shown)", "12.4 µM"),
]
